ASSAY_NOTES: Plasma concentrations (PK), Example 1
Assay type: in vivo, human
CONDITION: human, plasma, oral, 100 mg, 100 mg BID; Week 8; Peak; read-out: Plasma concentration, Median
Procedure: For QD dosing, peak concentration was defined as any PK sample taken between 0.25 to <6 hours after the last morning dose and trough concentration was at least 20 hours after the last morning dose. For BID dosing, peak concentration was defined as any PK sample taken between 0.25 to <4 hours after the last dose and trough concentration was at least 8 hours after the last dose.
PROPERTY_MEASURED: level at 1344 h (ng/mL)
Write the answer as a number in ng/mL, unit excluded.

### Prompt # input compound: CC(=O)NCCCC[C@@H]1NC(=O)[C@H](Cc2c[nH]c3c(C)cccc23)NC(=O)[C@H]([C@@H](C)O)NC(=O)[C@H](CC(N)=O)NC(=O)[C@@H](NC(C)=O)C(C)(C)SSC(C)(C)[C@@H](C(=O)N[C@@H](Cc2ccc(OCCN)cc2)C(=O)N[C@@H](Cc2ccc3ccccc3c2)C(=O)NC2(C(=O)N[C@@H](CCC(=O)O)C(=O)N[C@@H](CC(N)=O)C(=O)N[C@@H](Cc3cccnc3)C(=O)N(C)CC(N)=O)CCOCC2)NC1=O [IL-23 receptor antagonist peptide] ; wanted: its level at 1344 h
### Response 1.44
